# study_system: FXR (Homo sapiens (Human), UniProt Q96RI1)
# Sequence (Q96RI1 262-486): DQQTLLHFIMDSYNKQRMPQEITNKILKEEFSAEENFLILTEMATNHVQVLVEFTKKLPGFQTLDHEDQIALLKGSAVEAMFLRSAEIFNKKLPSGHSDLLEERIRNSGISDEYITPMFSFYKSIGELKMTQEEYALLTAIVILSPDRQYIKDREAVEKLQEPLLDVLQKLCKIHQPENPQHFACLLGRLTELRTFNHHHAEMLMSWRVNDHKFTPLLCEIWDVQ
# assay_summary: transient human FXR/Gal4-luciferase reporter assay
# Assay type: cell-based
# run_conditions: Gal4-hFXR fusion construct, HEK293 reporter cells; response relative to 8 μM GW-4064
Labelling field: enter t if recorded EC50 is less than 0.2 µM. Enter f if it equals or exceeds that cut-off.

>>> qualitative_label("CC(C)c1noc(C23CCC(CN(C(=O)C45CC(F)(C4)C5)c4cccc(-c5ccc(NS(C)(=O)=O)cc5)c4)(CC2)CC3)n1 [Example 376]")
"t"
>>> qualitative_label("O=C(C1CC(O)(C(F)(F)F)C1)N(CC12CCC(c3noc(-c4ccc(F)cc4)n3)(CC1)CC2)c1cccc(-c2ccc(OC(F)F)cc2)c1 (stereo not drawn) [Example 639]")
"f"
>>> qualitative_label("COc1ccc(-c2cccc(N(CC34CCC(c5nc(C(C)C)no5)(CC3)CC4)C(=O)C34CC(F)(C3)C4)c2)cn1 [Example 382]")
"t"
>>> qualitative_label("CC(C)NC(=O)NC12CCC(CN(C(=O)C3CC(O)(C(F)(F)F)C3)c3cccc(-c4ccc(OC(C)C)cc4)c3)(CC1)CC2 (stereo not drawn) [Example 604]")
"f"
>>> qualitative_label("CC(C)Oc1ccc(-c2cccc(N(CC34CCC(c5cc(C6(F)CC6)nn5C)(CC3)CC4)C(=O)OC(C)(C)C(F)(F)F)c2)cc1 [Example 655]")
"f"
>>> qualitative_label("CC(C)(Oc1ccc(-c2cccc(N(CC34CCC(c5noc(C(C)(C)F)n5)(CC3)CC4)C(=O)[C@H]3C[C@](O)(C(F)(F)F)C3)c2)cc1)C(N)=O [Example 654]")
"t"

---

Reported pEC50 values for a set of compounds
# study_system: FXR (Homo sapiens (Human), UniProt Q96RI1)
# assay_summary: FXR EC50 (FXR agonist potency reported with each Example)
# Assay type: cell-based
pEC50: −log10 of the molar value.
assay_readout: pEC50

>>> number("O=C(N(CC12CCC(c3noc(C4CC4(F)F)n3)(CC1)CC2)c1cccc(-c2nc(C3CC3)no2)c1)C12CC(F)(C1)C2 (stereo not drawn)")
7.14
>>> number("Cn1nc(-c2cccc(N(CC34CCC(c5nc(C6CC6)no5)(CC3)CC4)C(=O)C3CCC(F)(F)C3)c2)cc1C1CC1 (stereo not drawn)")
6.37
>>> number("COCc1coc(-c2cccc(N(CC34CCC(c5nc(C6CC6)no5)(CC3)CC4)C(=O)C34CC(F)(C3)C4)c2)n1")
6.86

---

# study_system: FXR (Homo sapiens (Human), UniProt Q96RI1)
# assay_summary: FXR EC50 (FXR agonist potency reported with each Example)
# Type: cell-based
assay_readout: EC50 (µM)

>>> number("CCOC(=O)c1nc(-c2cccc(N(CC34CCC(c5nc(C6CC6)no5)(CC3)CC4)C(=O)C34CC(F)(C3)C4)c2)cs1 [Example 29]")
1.09
>>> number("CC(C)(C)c1noc(C23CCC(CN(C(=O)C4CN(C(=O)C(F)(F)F)C4)c4cccc(-c5nc(C6CC6)no5)c4)(CC2)CC3)n1 [Example 193]")
4.87
>>> number("Cn1nc(C(C)(C)C)cc1-c1cccc(N(CC23CCC(c4noc(C(C)(C)C)n4)(CC2)CC3)C(=O)C23CC(F)(C2)C3)c1 [Example 213]")
0.198
>>> number("CC1(c2nc(C34CCC(CN(C(=O)C56CC(F)(C5)C6)c5cccc(-c6nnc(C7CC7)o6)c5)(CC3)CC4)no2)COC1 [Example 155]")
0.072
>>> number("Cn1nc(C2CC2)cc1C12CCC(CN(C(=O)C34CC(F)(C3)C4)c3cccc(-c4nc(C5CC5)no4)c3)(CC1)CC2 [Example 126]")
0.087
>>> number("O=C(N(CC12CCC(c3nc(C4CC4)no3)(CC1)CC2)c1cccc(-n2cc(C3CC3)nn2)c1)C12CC(F)(C1)C2 [Example 219]")
0.0984
